B1: library; numbered along this chain (parent)
chain: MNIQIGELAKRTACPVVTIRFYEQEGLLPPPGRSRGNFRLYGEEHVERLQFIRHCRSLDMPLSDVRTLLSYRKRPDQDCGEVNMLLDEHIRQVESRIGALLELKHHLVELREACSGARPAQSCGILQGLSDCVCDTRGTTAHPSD

variants of: B1; test: sfGFP reporter fluorescence (15 h) (µM FITC); higher = higher leak; details: library round: Round 0; ligand: none
Label 1.0 for high-side sfGFP reporter fluorescence (at or above 0.06) and 0.0 for low-side sfGFP reporter fluorescence (below it).

{"sequence-variant": "M60L D64K G128M", "category-label": 1.0}
{"sequence-variant": "G6A", "category-label": 0.0}
{"sequence-variant": "R33S", "category-label": 1.0}
{"sequence-variant": "E109P", "category-label": 1.0}
{"sequence-variant": "F38A", "category-label": 1.0}
{"sequence-variant": "V16Y", "category-label": 1.0}
{"sequence-variant": "D64K G128I", "category-label": 1.0}
{"sequence-variant": "P30I", "category-label": 0.0}
{"sequence-variant": "K10A", "category-label": 0.0}
{"sequence-variant": "C134R", "category-label": 1.0}
{"sequence-variant": "C134Q", "category-label": 1.0}
{"sequence-variant": "R20S", "category-label": 1.0}
{"sequence-variant": "E7V", "category-label": 1.0}
{"sequence-variant": "N83Q", "category-label": 1.0}
{"sequence-variant": "I3M", "category-label": 1.0}
{"sequence-variant": "S122A", "category-label": 1.0}
{"sequence-variant": "E109T", "category-label": 1.0}
{"sequence-variant": "R20Q", "category-label": 1.0}
